- study-target: T1, human FOLR1 expressed on SKOV-3 ovarian carcinoma cells (human, UniProt P15328 25-234)
- T1 construct: Naturally expressed receptor on SKOV-3 cells; also called human FOLR1pos SKOV-3 cancer cells; human FOLR1-expressing cell line SKOV-3
- T1 sequence (P15328 25-234 limits assumed): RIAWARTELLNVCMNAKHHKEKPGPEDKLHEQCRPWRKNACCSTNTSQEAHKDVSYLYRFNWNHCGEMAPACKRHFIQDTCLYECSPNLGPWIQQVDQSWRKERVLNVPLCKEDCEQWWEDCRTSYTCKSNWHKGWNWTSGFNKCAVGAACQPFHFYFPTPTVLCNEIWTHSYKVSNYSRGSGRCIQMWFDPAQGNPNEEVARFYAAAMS
- assay-summary: cellular retention on SKOV-3 cells: 10 nM 131I-VHH 1 h at 4 C, then up to 24 h at 37 C; membrane-bound plus internalized fraction
property-measured: cell-associated fraction of initial bound activity after 24 h

Solved entries:
Prompt: So what does the record say about cell-associated fraction of initial bound activity after 24 h for 131I-labeled untagged VHH A2 (VHH, [131I]SGMIB conjugated to lysine side-chain amine groups) VHH: DVQLVESGGGLVQAGGSLRLSCAADEMKFSNYDLAWYRRAPGKQRELAAIITSGGSTNYPDSVKGRFTISRDNAKNTVYLEMNSLKPEDTAVYYCNALRPWPQFSDYWGQGTQVTVSS ?
Completion: ~60%

Prompt: Okay, and 131I-labeled His6-tagged VHH A2 (VHH, [131I]SGMIB conjugated to lysine side-chain amine groups) VHH: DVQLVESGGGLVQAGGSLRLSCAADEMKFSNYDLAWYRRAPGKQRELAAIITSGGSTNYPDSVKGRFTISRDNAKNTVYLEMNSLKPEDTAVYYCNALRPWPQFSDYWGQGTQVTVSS ?
Completion: ~60%

Prompt: Okay, and 131I-labeled untagged VHH A1 (VHH, [131I]SGMIB conjugated to lysine side-chain amine groups) VHH: DVQLVESGGGLVQPGGSLRLSCAASESIFSRNHMSWYRQAPGKQRELAAIITSDGNTNYPDSVKGRFTISRDNAKNTVYLQMNSLKPEDTAVYYCNTFGRSVAGFYDYWGQGTQVTVSS ?
Completion: ~40%

Here is the next item to consider.
Prompt: So what does the record say about cell-associated fraction of initial bound activity after 24 h for 131I-labeled His6-tagged VHH A1 (VHH, [131I]SGMIB conjugated to lysine side-chain amine groups) VHH: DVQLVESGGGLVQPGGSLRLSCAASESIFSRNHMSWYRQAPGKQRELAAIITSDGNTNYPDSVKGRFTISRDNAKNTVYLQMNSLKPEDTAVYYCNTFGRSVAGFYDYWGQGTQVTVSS ?
Completion: ~40%
